Below are IC50 values recorded for Syk (Homo sapiens, UniProt P43405).

COc1cc(-c2cc3nccc(-c4cccc(OCc5ccccc5)c4)c3o2)cc(OC)c1OC [Compound A31] :: 3 to 50 µM

Notebook: COc1c(C)cc(-c2cc3nccc(Nc4ccc5[nH]ccc5c4C)c3o2)cc1C [Compound B49] , IC50 read as 0.3 to 3 µM

Notebook: Cc1cc(-c2cc3nccc(-c4cnn(C)c4)c3o2)cc(C(C)(C)C)c1 [Compound C9] , IC50 read as 0.3 to 3 µM

Notebook: CN(c1ncccc1CNc1ccnc2cc(-c3ccccc3)oc12)S(C)(=O)=O [Compound B20] , IC50 read as 3 to 50 µM

Notebook: Oc1cccc(-c2cc3nccc(-c4ccccc4)c3o2)c1 [Compound C1] , IC50 read as 0.3 to 3 µM

Notebook: COc1cccc(-c2cc3nccc(-c4cccc(OC)c4OC)c3o2)c1OC [Compound B42] , IC50 read as 3 to 50 µM

Notebook: COc1cc(-c2cc3nccc(-c4cnn(C)c4)c3o2)ccn1 [Compound C16] , IC50 read as 0.3 to 3 µM

Notebook: Fc1ccc(-c2cc3nccc(-c4ccc(F)cc4)c3o2)cc1 [Compound B6] , IC50 read as 3 to 50 µM

Notebook: O=C(Nc1cccc(-c2cc3nccc(-c4ccccc4)c3o2)c1)[C@@H]1CCCN1 [Compound C31] , IC50 read as 0.3 to 3 µM

Notebook: COc1cc(-c2cc3nccc(-c4ccnc5ccccc45)c3o2)cc(OC)c1OC [Compound A24] , IC50 read as 0.3 to 3 µM

Notebook: COc1cc(-c2cc3nccc(-c4cnn(C)c4)c3o2)ccc1O [Compound C26] , IC50 read as < 0.3 µM

Notebook: COc1cc(-c2cc3nccc(NCc4cccc(S(C)(=O)=O)c4)c3o2)cc(OC)c1OC [Compound B9] , IC50 read as 3 to 50 µM
